Data credit: paper PMC5741288

# Measurement protocol: Plasma pharmacokinetics after single oral dose
# Type: in vivo, healthy men
# Run conditions: male, human, plasma, oral, Median tmax, across the dose range administered (discussion)
Readout type: Tmax

q: Form field: reported Tmax of CC(C)(O)c1ccccc1-c1ccc2[nH]c(/C=C/c3ccc(C(F)(F)F)cc3)nc2c1
a: 2 to 4.5 h

====

# Measurement protocol: Plasma pharmacokinetics after single oral dose
# Type: in vivo, healthy men
# Run conditions: male, human, plasma, po, Terminal phase half-life, single oral doses
Readout type: half-life

q: Form field: reported half-life of CC(C)(O)c1ccccc1-c1ccc2[nH]c(/C=C/c3ccc(C(F)(F)F)cc3)nc2c1
a: 30 to 86 h

====

# Measurement protocol: Plasma pharmacokinetics after single oral dose
# Assay type: in vivo, healthy men
# Run conditions: male, human, plasma, oral, 50 mg, Median tmax, part 2; 10 and 50 mg; tablet, fasted
Readout type: Tmax

q: Form field: reported Tmax of CC(C)(O)c1ccccc1-c1ccc2[nH]c(/C=C/c3ccc(C(F)(F)F)cc3)nc2c1 [JNJ-39439335]
a: ~3 h
